Source: paper PMC10397247

Recorded interaction score for the following binders
# target: T1, 4H797-AA
# T1 chain: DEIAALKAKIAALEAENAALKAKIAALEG
# experimental_protocol: two-hybrid library CCmax;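 also: natural log of median RNA to DNA barcode read ratio; higher means stronger binding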
# measurement_context: mean of both orientations
Give a plain numeric answer without units written out.

Answered cases to consult:
binder | interaction score
DENAALKAEIAALEAKNAALKAKIAALEG [4H1597-AA] | 0.0984
DKIAALEAKNAALEAEIAALEAKIAALKG [4H2438-AA] | -1.67

Next, consider the following binder.
I have this binder here, DKIAALEAEIAALEAKNAALKAKIAALEG [4H2109-AA] , and I need its recorded interaction score.
1.44
